- Tested on: c-Src;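 also: 11-residue human phosphosite peptides and single-mutation variants displayed on the E. coli surface, counted by deep sequencing, each peptide's frequency after selection divided by its frequency in the unselected input library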;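 also: frequency after pTyr selection over input frequency; kinase dosed for 20-30% of maximal phosphorylation in three min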
- ASSAY EXPLANATION: phosphorylation enrichment, bacterial display (enrichment ratio); higher = better substrate or ligand; peptides without Tyr show the background
If the reported phosphorylation enrichment equals or exceeds 0.6, assign fulfilled. If not, assign not fulfilled.

Previously resolved entries follow.
>  <SEQUENCE TEXT>
DVLPEYKLQAP [KCNH2_Y388]

>  <LABEL CLASS>
not fulfilled

$$$$
>  <SEQUENCE TEXT>
AAVDEYLEHRR [FAM221A_Y17_Y20H]

>  <LABEL CLASS>
not fulfilled

$$$$
>  <SEQUENCE TEXT>
KLKEKYEKDIA [HMGB1_Y155]

>  <LABEL CLASS>
not fulfilled

$$$$
>  <SEQUENCE TEXT>
GGPAEYLRRAS [PKLR_Y38_G37E]

>  <LABEL CLASS>
not fulfilled

$$$$

Inquiry: Identify whether the reported phosphorylation enrichment of the following sequence is 0.6 or greater: LFQAKYQIRYR [CRLF1_Y272]
Reply text: not fulfilled

Inquiry: Evaluate QMVGMYAFSYM [AVPR2_Y124_S126F] : phosphorylation enrichment at minimum 0.6?
Reply text: fulfilled

Inquiry: Hello, I need to know if RLLRGYDQFAY [HLA-C_Y137_S140F] has measured phosphorylation enrichment not below 0.6. Thanks!
Reply text: not fulfilled

Inquiry: Decide: is the reported value of phosphorylation enrichment for SELVCYDARVH [MET_Y971_R970C] equal to or greater than 0.6?
Reply text: not fulfilled

Inquiry: I'd appreciate it if you could say whether KLYRVYCDMNT [FGB_Y269_P265L] has phosphorylation enrichment at least equal to 0.6.
Reply text: not fulfilled

Inquiry: Is the recorded value of phosphorylation enrichment equal to or greater than 0.6 for this sequence? KHCEDYVFSFN [DSC1_Y846_C848F_YF]
Reply text: fulfilled

Inquiry: Can RLRKYYLGKYL [KLB_Y906] be said to have phosphorylation enrichment at or above 0.6?
Reply text: fulfilled

Inquiry: Is reported phosphorylation enrichment greater than or equal to 0.6 here: FAREGYSALPQ [SARS2_Y52_YF]
Reply text: not fulfilled

Inquiry: Does TLNHQYDFTFH [CSNK1A1_Y292_D297H_YF] have a reported phosphorylation enrichment of at least 0.6?
Reply text: not fulfilled

Inquiry: Could you tell me if the measured phosphorylation enrichment of SKDQIYPMKLK [RANBP17_Y823] reaches 0.6 or more?
Reply text: not fulfilled

Inquiry: Quick check, phosphorylation enrichment >= 0.6? RFMVGYEMLAQ [GALT_Y339_K334R]
Reply text: fulfilled

Inquiry: Given HIKHNYECLVY [XRCC5_Y416] , state whether its phosphorylation enrichment is at least 0.6.
Reply text: fulfilled

Inquiry: I'd appreciate it if you could say whether ISDDNYGRIRL [ARCN1_Y310_K309N] has phosphorylation enrichment at least equal to 0.6.
Reply text: fulfilled

Reference for the values: the supplement of paper PMC10065799
